# Species on record: Rattus norvegicus
# experimental details: Open TG-GATES - Regimen: Single
# Assay type: toxicity, organism-based, Sprague-Dawley
# Design: regimen Single, gender Male, age 6 weeks
# measurement context: in vivo, po, 0 mg/kg, 3 h, tissue Plasma, route gavage, dose level Control
reported property: CRE

State the recorded CRE for every item in the following list.
1. O=C(CCCN1CCC(O)(c2ccc(Cl)cc2)CC1)c1ccc(F)cc1
2. CCOc1ccc(NC(=O)CC(C)O)cc1 (centres undefined)
3. Cc1ccc(C)c(OCCCC(C)(C)C(=O)O)c1
4. CN(C)CCCN1c2ccccc2CCc2ccc(Cl)cc21
5. NC(N)=Nc1nc(CSCCC(N)=NS(N)(=O)=O)cs1
6. NNC(=O)c1ccncc1
7. CC(C)OC(=O)C(C)(C)Oc1ccc(C(=O)c2ccc(Cl)cc2)cc1 [FENOFIBRATE]
8. C[C@@H]1C[C@H]2[C@@H]3CCC4=CC(=O)C=C[C@]4(C)[C@@]3(F)[C@@H](O)C[C@]2(C)[C@@]1(O)C(=O)CO

*A*
0.5 mg/dL
0.2 mg/dL
0.2 mg/dL
0.2 mg/dL
0.4 mg/dL
0.4 mg/dL
0.2 mg/dL
0.4 mg/dL

Summary for this compound, COc1ccc2[nH]c([S+]([O-])Cc3ncc(C)c(OC)c3C)nc2c1 (centres undefined) : CRE is 0.4 mg/dL
